Just for reference, PubChem BioAssay (NCATS) is where these values come from.

Test system: CP265
Assay: qHTS profiling for inhibitors of Plasmodium falciparum proliferation (AID 504749); note: nearly all actives have a fitted effect of over 60% in size
Details: P. falciparum in erythrocytes, SYBR Green DNA, 72 h; series mostly up to 28.7 µM
Records with an inconclusive call do not appear. Active and inactive are the calls of the source. Calls come from the whole dose curve; as a rule, active = well fitted inhibition curve with a large enough effect; inconclusive = small, poorly fitted or top-dose-only effect; inactive = flat fitted curve, though single readings scatter.
Pick from 1 for active, 0 for inactive when you respond.

COc1ccc2cc([C@H](C)C(=O)O)ccc2c1
0

Q: Answer briefly: the call reported for CC1=C(C)C(=O)C(C(CCCCCC(=O)O)c2ccccc2)=C(C)C1=O (stereo unspecified) in this assay.
A: 0

Q: Answer briefly: the call reported for `Cc1c(C(=O)NN2CCCCC2)nn(-c2ccc(Cl)cc2Cl)c1-c1ccc(Cl)cc1` in this assay.
A: 1

Q: Answer briefly: the call reported for `CC(C)c1ccc2oc3nc(N)c(C(=O)O)cc3c(=O)c2c1` in this assay.
A: 0

Q: Answer briefly: the call reported for `Oc1ccc(OCc2ccccc2)cc1` in this assay.
A: 0

Q: Answer briefly: the call reported for `CNC[C@H](O)c1ccc(O)c(O)c1` in this assay.
A: 0

Q: Answer briefly: the call reported for `CCCOc1ccc2nc(NC(=O)OC)[nH]c2c1` in this assay.
A: 0

Q: Answer briefly: the call reported for C[Se]CCC(N)C(=O)O (stereo unspecified) in this assay.
A: 0
